Target: CD73 activity in MDA-MB-231-GFP cells (Homo sapiens, UniProt P21589)
Construct: endogenous in cells; host or cells: MDA-MB-231-GFP cells
Sequence (P21589 27-549): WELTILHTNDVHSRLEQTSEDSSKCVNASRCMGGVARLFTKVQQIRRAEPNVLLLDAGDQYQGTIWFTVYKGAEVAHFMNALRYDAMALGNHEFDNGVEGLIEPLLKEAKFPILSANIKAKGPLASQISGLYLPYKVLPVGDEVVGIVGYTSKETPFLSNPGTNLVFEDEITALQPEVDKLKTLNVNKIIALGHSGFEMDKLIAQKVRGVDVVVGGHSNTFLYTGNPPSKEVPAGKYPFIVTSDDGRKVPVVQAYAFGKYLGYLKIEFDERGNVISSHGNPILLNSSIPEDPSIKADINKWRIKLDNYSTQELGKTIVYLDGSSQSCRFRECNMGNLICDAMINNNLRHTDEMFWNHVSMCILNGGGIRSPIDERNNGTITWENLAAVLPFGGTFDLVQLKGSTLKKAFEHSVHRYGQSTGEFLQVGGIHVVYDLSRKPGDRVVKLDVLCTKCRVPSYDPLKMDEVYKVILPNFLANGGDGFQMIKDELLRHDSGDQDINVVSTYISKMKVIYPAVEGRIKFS
Assay: MDA-MB-231 Cell Based CD73 Activity Assay (DMEM)
Settings: 3000 cells per well, DMEM medium with 10% human plasma, overnight compound treatment, AMP 200 uM
Protocol: MDA-MB-231 Cell Based CD73 Activity Assay (DMEM) MDA-MB-231-GFP cells were seeded in 384-well plates (Greiner 781946) at a density of 3000 cells per well in 50 μL of DMEM medium with 10% HP (human plasma). Cells were plated into assay plate with compounds pre-spotted, for an overnight compound treatment. 50 uL of 400 uM AMP (final concentration will be 200 uM) was added using Bio-tek dispenser. Plates were incubated for 100 mins. […] The samples were analyzed using Rapid fire.
pEC50: −log10 of the molar value.
// pEC50 lookup, one value per entry
parameter: pEC50

1. O=C(c1cccc([C@H]2C[C@@H]2c2cc(-c3c[nH]c(=O)[nH]c3=O)nn3ccnc23)c1)N1CCC1 (racemic) [Example 294] | 8.88
2. O=c1[nH]cc(-c2cc([C@H]3C[C@@H]3c3ccccc3OC(F)(F)F)c3nccn3n2)c(=O)[nH]1 (racemic) [Example 309] | 6.68
3. O=c1[nH]cc(-c2cc([C@H]3C[C@@H]3c3cc4c(cn3)cnn4CC(F)(F)F)c3ncc(Cl)n3n2)c(=O)[nH]1 (racemic) [Example 471] | 9.62
4. O=c1[nH]cc(-c2cc([C@H]3C[C@@H]3c3ncc(C(F)(F)F)cn3)c3ncc(F)n3n2)c(=O)[nH]1 (racemic) [Example 378] | 7.72
5. O=c1[nH]cc(-c2cc([C@H]3C[C@@H]3c3ccc(OC(F)(F)F)cn3)c3nccn3n2)c(=O)[nH]1 (single isomer, unassigned) [Example 373] | 8.02
6. CN(C)C(=O)c1ccc([C@H]2C[C@@H]2c2cc(-c3c[nH]c(=O)[nH]c3=O)nn3ccnc23)cc1 (racemic) [Example 288] | 7.45
7. O=c1[nH]cc(-c2cc([C@H]3C[C@@H]3c3ccccn3)c3ncc(F)n3n2)c(=O)[nH]1 (racemic) [Example 178] | 8.36
8. O=c1[nH]cc(-c2cc([C@H]3C[C@@H]3c3ccc(OC(F)(F)F)cn3)c3nccn3n2)c(=O)[nH]1 (racemic) [Example 372] | 8.03
9. O=C(c1cccc([C@H]2C[C@@H]2c2cc(-c3c[nH]c(=O)[nH]c3=O)nn3ccnc23)c1)N1C[C@@H](F)[C@H](F)C1 (racemic) [Example 300] | 8.87
